Would you kindly list TGI for each of these molecules?
Test system: HCT-116 colon
Assay: NCI tumour cell line growth inhibition, 48 h
One number for each entry, in µM.

# TGI measured on HCT-116 colon for item `COC(=O)[C@]1(C)CCC[C@]2(C)[C@@H](CCC(=O)C(C)C)[C@]3(C=O)O[C@@H]3C[C@H]21` = 57.7

Summary: CC(=O)OCC1OC(OC(C)=O)C(Nc2ncc(-c3ccc(C)cc3)s2)C(OC(C)=O)C1OC(C)=O (centres undefined) , HCT-116 colon, TGI = 32.1

// for each molecule below, give its TGI
1. CCCNCC(O)CNc1ccc(NCC(O)CNCCC)c2c1C(=O)c1ccccc1C2=O (centres undefined)
2. CCOc1cc(/C=C/C(=O)C(C(=O)/C=C/c2ccc(OC(=O)CNc3nnc(C)s3)c(OCC)c2)C(=O)CNc2nnc(C)s2)ccc1OC(=O)CNc1nnc(C)s1

8.31
4.42

* * *

For each of the compounds below, state its TGI.
Test system: HOP-18 NSCLC
Experiment: NCI tumour cell line growth inhibition, 48 h

Give TGI for each listed item.
1. CCc1nc2ccccc2c(=O)n1/N=C(\N=Nc1ccc(Cl)cc1)c1ccccc1
2. CCC1c2cc3n(c(=O)c2COC1O)Cc1c-3nc2ccccc2c1Cl (stereo not given)
3. O=C1C=CC(=O)c2cc(Sc3ccccc3)c(=O)c(Sc3ccccc3)cc21

1: 71 µM; 2: > 100 µM; 3: > 100 µM

Hello, I would appreciate it if you could give TGI for each entry below.
1. CCCCCCCCCC/C=C/C=O
2. CCCCN(CCCC)CC(C(=O)Nc1ccc([N+](=O)[O-])cc1[N+](=O)[O-])/C(C)=N\NC(=O)C[N+](C)(C)C (stereo not given)

1: > 100 µM; 2: > 100 µM

Please supply TGI for each of the following items, keeping them in order.
1. CCOC(=O)/C(=C/c1ccccc1Br)P(=O)(OCC)OCC
2. Cc1ccc(NC(=O)/C(=N\NC(N)=S)C(C#N)c2ccccc2C)cc1C (stereo not given)
3. CC(=O)OCC1OC([Se-])C(OC(C)=O)C(OC(C)=O)C1OC(C)=O.N#CCC[PH+](CCC#N)CCC#N.[Au+] (stereo not given)
4. Fc1ccc(C2SCc3nc4ccccc4n32)cc1F (stereo not given)

1. 10.7 µM
2. > 100 µM
3. 46.9 µM
4. > 100 µM

Memo: O=C(Cc1ccccc1)NN1C(=O)C(Cl)C1c1cccc([N+](=O)[O-])c1 (stereo not given) , reported TGI: > 100 µM

* * *

Give TGI for every item shown.
System: 786-0 renal
Assay: NCI tumour cell line growth inhibition, 48 h

// solved cases for TGI follow
Just so you know, measured TGI for CCCCN(CCCC)CC(C(=O)Nc1ccc([N+](=O)[O-])cc1[N+](=O)[O-])/C(C)=N\NC(=O)C[N+](C)(C)C (stereo not given) came out at > 100 µM

Per the record, `CC(=O)SC(SC(C)=O)SC(C)=O` has TGI of > 100 µM

Reported TGI of Cc1cc(C(O)(c2ccc(Nc3ccccc3)cc2)c2ccc(Nc3ccc(S(=O)(=O)O)cc3)cc2)ccc1N (stereo not given) : 2.27 µM

The value of TGI measured for the compound C/C(=N\O)C1CC2C=C(C#N)C1N(Cc1ccccc1)C2 (stereo not given) turned out to be > 100 µM

More entries:
Entry `O=C(c1cccs1)c1nc2cc(Cl)ccc2[n+]([O-])c1C(F)(F)F` — recorded TGI = > 100 µM

// provenance: PubChem BioAssay (NCI)
